For each entry below, report its EC50 value.
- target.system: TRPML2 (Homo sapiens)
- Construct: expressed in transfected cells
- Sequence (Q8IZK6 whole entry): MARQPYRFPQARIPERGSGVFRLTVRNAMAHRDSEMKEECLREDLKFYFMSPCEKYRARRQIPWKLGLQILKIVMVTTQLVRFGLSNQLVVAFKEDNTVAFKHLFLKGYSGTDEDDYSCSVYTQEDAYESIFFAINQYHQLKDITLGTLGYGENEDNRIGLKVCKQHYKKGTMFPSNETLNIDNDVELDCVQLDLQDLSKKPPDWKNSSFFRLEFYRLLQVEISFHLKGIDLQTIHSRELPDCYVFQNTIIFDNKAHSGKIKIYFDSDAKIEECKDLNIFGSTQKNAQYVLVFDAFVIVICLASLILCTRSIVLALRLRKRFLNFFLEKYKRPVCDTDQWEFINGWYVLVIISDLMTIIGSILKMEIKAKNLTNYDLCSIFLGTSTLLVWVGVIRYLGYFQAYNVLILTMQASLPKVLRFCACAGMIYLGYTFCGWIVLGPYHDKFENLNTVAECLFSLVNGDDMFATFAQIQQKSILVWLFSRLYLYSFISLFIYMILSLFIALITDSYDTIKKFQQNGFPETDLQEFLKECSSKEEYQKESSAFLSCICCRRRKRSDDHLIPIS
- measurement.protocol: Fluorescent TRPML2 assay (performed as for TRPML1, substituting the TRPML2 subtype)
- Format: cell-based
- test.parameters: fluorescent calcium assay

Prompt line: What measured EC50 goes with CCOC(=O)N1CCN(c2ncnc3c2c(-c2ccccn2)cn3-c2ccc(F)c(Cl)c2)[C@@H](C)C1 [Compound 155] ?
Response line: 500 to 2000 nM

Prompt line: What measured EC50 goes with C[C@@H]1CN(C(=O)OC(C)(C)C)CCN1c1ncnc2c1c(C1CC1)cn2-c1ccc(Cl)cc1 [Compound 147] ?
Response line: 100 to 500 nM

Prompt line: What measured EC50 goes with CCOC(=O)N1C[C@H](C)N(c2ncnc3c2c(-c2ccccc2F)cn3-c2cncc(OC)c2)C[C@H]1C [Compound 138] ?
Response line: 500 to 2000 nM

Prompt line: What measured EC50 goes with CC(C)(C)OC(=O)N1CCN(c2nccc3c2c(C2CC2)cn3-c2ccc(Cl)cc2)CC1 [Compound 156] ?
Response line: 100 to 500 nM

Prompt line: What measured EC50 goes with C[C@H]1CN(C(=O)OC(C)(C)C)CCN1c1ncnc2c1c(C1CC1)cn2-c1cc(C#N)n(C)n1 [Compound 413] ?
Response line: 100 to 500 nM

Prompt line: What measured EC50 goes with CC(C)(C)OC(=O)N1CCN(c2ncnc3c2c(-c2ccccn2)cn3-c2ccc(F)c(Cl)c2)CC1 [Compound 151] ?
Response line: 100 to 500 nM

Prompt line: What measured EC50 goes with C[C@H]1CN(C(=O)OC(C)(C)C)CCN1c1ncnc2c1c(C1CC1)cn2C1CCOCC1 [Compound 340] ?
Response line: > 2000 nM

Prompt line: What measured EC50 goes with C[C@H]1CN(C(=O)OC(C)(C)C)CCN1c1ncnc2c1c(C1CC1)cn2C1CC(C#N)C1 (some centres unmarked) [Compound 414] ?
Response line: > 2000 nM

Prompt line: What measured EC50 goes with COc1cccc(-n2cc(C3CC3)c3c(N4CCN(C(=O)OC(C)(C)C)C[C@H]4C)ncnc32)c1 [Compound 201] ?
Response line: 500 to 2000 nM

Prompt line: What measured EC50 goes with COc1cccc(-n2cc(C3CC3)c3c(N4CCN(C(=O)OC(C)(C)C)C[C@@H]4C)ncnc32)c1 [Compound 202] ?
Response line: 500 to 2000 nM

Prompt line: What measured EC50 goes with COc1cncc(-n2cc(C3CC3)c3c(N4CCN(C(=O)OC(C)(C)C)CC4)ncnc32)c1 [Compound 104] ?
Response line: > 2000 nM

Prompt line: What measured EC50 goes with CCOC(=O)N1C[C@H](C)N(c2ncnc3c2c(-c2ccccc2F)cn3-c2cccnc2)C[C@H]1C [Compound 143] ?
Response line: > 2000 nM

Prompt line: What measured EC50 goes with Cc1cn(-c2cc(C#N)ccn2)c2ncnc(N3CCN(C(=O)OC(C)(C)C)C[C@@H]3C)c12 [Compound 476] ?
Response line: < 100 nM

Prompt line: What measured EC50 goes with C[C@H]1CN(C(=O)OC(C)(C)C(F)(F)F)CCN1c1ncnc2c1c(-c1cncnc1)cn2-c1cccc(C#N)c1 [Compound 336] ?
Response line: > 2000 nM

Prompt line: What measured EC50 goes with C[C@H]1CN(C(=O)OC(C)(C)C)CCN1c1ncnc2c1c(N(C)C)cn2-c1cc(C#N)ccn1 [Compound 426] ?
Response line: < 100 nM

Prompt line: What measured EC50 goes with CC1CN(C(=O)OC(C)(C)C)CCN1c1nccc2c1c(-c1cnccn1)cn2-c1cccc(Cl)c1 (centres unmarked) [Compound 190] ?
Response line: 500 to 2000 nM

Prompt line: What measured EC50 goes with C[C@@H]1CN(C(=O)OC(C)(C)C)CCN1c1ncnc2c1c(N1CCCC1)cn2-c1cccc(Cl)c1 [Compound 209] ?
Response line: 100 to 500 nM

Prompt line: What measured EC50 goes with CC(C)(C)OC(=O)N1CCCN(c2ncnc3c2c(C2CC2)cn3-c2cc(C#N)ccn2)CCC1 [Compound 482] ?
Response line: 100 to 500 nM

Prompt line: What measured EC50 goes with C[C@H]1CN(C(=O)OC(C)(C)C)CCN1c1ncnc2c1c(CN1CCCC1)cn2-c1cccc(Cl)c1 [Compound 337] ?
Response line: > 2000 nM

Prompt line: What measured EC50 goes with C[C@H]1CN(C(=O)OC(C)(C)C)CCN1c1nccc2c1c(-c1ccccc1F)cn2-c1cc(C#N)ccn1 [Compound 449] ?
Response line: 100 to 500 nM

Prompt line: What measured EC50 goes with C[C@H]1CN(C(=O)OC(C)(C)C)CCN1c1ncnc2c1c(C1CC1)cn2-c1ccc(F)c(OC(F)(F)F)c1 [Compound 387] ?
Response line: 100 to 500 nM

Prompt line: What measured EC50 goes with COc1cncc(-n2cc(-c3ccccc3F)c3c(N4CCN(C(=O)OC(C)(C)C)C[C@@H]4C)ncnc32)c1 [Compound 105] ?
Response line: > 2000 nM

Prompt line: What measured EC50 goes with C[C@H]1CN(C(=O)OC(C)(C)C)CCN1c1ncnc2c1c(C1CC1)cn2-c1ncc(C#N)[nH]1 [Compound 440] ?
Response line: > 2000 nM

Prompt line: What measured EC50 goes with CCOC(=O)N1C[C@H](C)N(c2ncnc3c2c(-c2ccccc2F)cn3-c2ccccn2)C[C@H]1C [Compound 137] ?
Response line: 500 to 2000 nM

Prompt line: What measured EC50 goes with CC(C)OC(=O)N1CCN(c2ncnc3c2c(-c2ccccc2F)cn3-c2cc(C#N)ccn2)[C@@H](C)C1 [Compound 347] ?
Response line: < 100 nM

Prompt line: What measured EC50 goes with C[C@H]1CN(C(=O)OC(C)(C)C)CCN1c1ncnc2c1c(C1=CCOCC1)cn2-c1cccc(F)c1 [Compound 472] ?
Response line: 500 to 2000 nM

Prompt line: What measured EC50 goes with C[C@@H]1CN(c2ncnc3c2c(N2CCC2)cn3-c2cccc(C#N)c2)CCN1C(=O)OC(C)(C)C [Compound 341] ?
Response line: < 100 nM

Prompt line: What measured EC50 goes with CCc1cncc(-n2cc(C3CC3)c3c(N4CCN(C(=O)OC(C)(C)C)CC4)ncnc32)c1 [Compound 166] ?
Response line: 500 to 2000 nM

Prompt line: What measured EC50 goes with C[C@@H]1CN(c2ncnc3c2c(C2CC2)cn3-c2cccnc2)[C@@H](C)CN1C(=O)OC(C)(C)C [Compound 168] ?
Response line: > 2000 nM

###

- target.system: TRPML2 (Homo sapiens)
- Construct: expressed in transfected cells
- measurement.protocol: Fluorescent TRPML2 assay (performed as for TRPML1, substituting the TRPML2 subtype)
- Type: cell-based
- test.parameters: fluorescent calcium assay
property.name: EC50

Prompt line: What measured EC50 goes with C[C@@H]1CN(c2nccc3c2c(C2CC2)cn3-c2cc(F)cc(F)c2)CCN1C(=O)OC(C)(C)C [Compound 418] ?
Response line: 100 to 500 nM

Prompt line: What measured EC50 goes with Cc1nccnc1-c1cn(-c2ccc(Cl)cc2)c2ncnc(N3C[C@@H](C)N(C(=O)OC(C)(C)C)C[C@@H]3C)c12 [Compound 184] ?
Response line: 500 to 2000 nM

Prompt line: What measured EC50 goes with CCc1cn(-c2cc(C#N)ccn2)c2ncnc(N3CCN(C(=O)OC(C)(C)C)C[C@@H]3C)c12 [Compound 478] ?
Response line: < 100 nM

Prompt line: What measured EC50 goes with Cc1nccnc1-c1cn(-c2cc(C#N)ccn2)c2ncnc(N3CCN(C(=O)OC(C)(C)C)C[C@@H]3C)c12 [Compound 319] ?
Response line: 500 to 2000 nM

Prompt line: What measured EC50 goes with Cc1cncc(-n2cc(-c3cccnc3)c3c(N4CCN(C(=O)OC(C)(C)C)C[C@@H]4C)ncnc32)c1 [Compound 177] ?
Response line: > 2000 nM

Prompt line: What measured EC50 goes with C[C@@H]1CN(c2ncnc3c2c(N2CCCC2=O)cn3-c2cc(F)c(F)c(F)c2)CCN1C(=O)OC(C)(C)C [Compound 313] ?
Response line: > 2000 nM

Prompt line: What measured EC50 goes with C[C@@H]1CN(c2ncnc3c2c(-c2ccccc2F)cn3-c2cc(Cl)ccn2)[C@@H](C)CN1C(=O)OC(C)(C)C [Compound 454] ?
Response line: < 100 nM

###

For each entry below, report its pEC50 value.
- target.system: TRPML1 (Homo sapiens, UniProt Q9GZU1)
- Sequence (Q9GZU1 whole entry L15A/L16A/L577A/L578A, form open): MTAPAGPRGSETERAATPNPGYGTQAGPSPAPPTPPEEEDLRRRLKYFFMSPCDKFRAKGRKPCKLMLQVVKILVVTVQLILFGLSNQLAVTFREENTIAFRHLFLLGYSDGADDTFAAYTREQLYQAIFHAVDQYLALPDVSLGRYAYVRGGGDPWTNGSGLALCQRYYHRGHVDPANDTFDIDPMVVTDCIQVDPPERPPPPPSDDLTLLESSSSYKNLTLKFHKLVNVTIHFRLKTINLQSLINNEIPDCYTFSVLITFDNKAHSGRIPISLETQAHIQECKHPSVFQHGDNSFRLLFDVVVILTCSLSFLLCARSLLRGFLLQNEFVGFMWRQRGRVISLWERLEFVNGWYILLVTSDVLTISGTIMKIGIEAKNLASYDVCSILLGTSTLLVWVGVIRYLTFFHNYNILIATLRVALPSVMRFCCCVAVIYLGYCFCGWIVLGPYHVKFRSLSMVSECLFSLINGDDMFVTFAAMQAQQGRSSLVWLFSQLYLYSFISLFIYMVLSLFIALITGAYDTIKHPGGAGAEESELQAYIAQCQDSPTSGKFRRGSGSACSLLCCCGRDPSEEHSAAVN
- measurement.protocol: Fluorescent TRPML1 assay (Fluo4-AM calcium fluorescence in doxycycline-induced HEK-293 Trex cells)
- Type: cell-based
- test.parameters: fluorescent calcium assay
pEC50: −log10 of the molar value.

Prompt line: Observed pEC50 on TRPML1 (Homo sapiens, UniProt Q9GZU1) for C[C@@H]1CN(C(=O)OC(C)(C)C)CCN1c1ncnc2c1c(C1CC1)cn2-c1cc(C#N)ccn1 , please.
Response line: > 7.00

Prompt line: Observed pEC50 on TRPML1 (Homo sapiens, UniProt Q9GZU1) for C[C@@H]1CCCN1c1cn(-c2cccc(Cl)c2)c2ncnc(N3CCN(C(=O)OC(C)(C)C)C[C@@H]3C)c12 , please.
Response line: 6.30 to 7.00

Prompt line: Observed pEC50 on TRPML1 (Homo sapiens, UniProt Q9GZU1) for Cc1nccnc1-c1cn(-c2ccccc2)c2ncnc(N3C[C@@H](C)N(C(=O)OC(C)(C)C)C[C@@H]3C)c12 , please.
Response line: 5.70 to 6.30

Prompt line: Observed pEC50 on TRPML1 (Homo sapiens, UniProt Q9GZU1) for COc1cncc(-n2cc(-c3ccccc3F)c3c(N4CCN(C(=O)OC(C)(C)C)C[C@@H]4C)ncnc32)c1 , please.
Response line: 5.70 to 6.30

Prompt line: Observed pEC50 on TRPML1 (Homo sapiens, UniProt Q9GZU1) for C[C@H]1CN(C(=O)OC(C)(C)C)CCN1c1ncnc2c1c(-c1ccccc1F)cn2-c1ccnnc1 , please.
Response line: 6.30 to 7.00

Prompt line: Observed pEC50 on TRPML1 (Homo sapiens, UniProt Q9GZU1) for C[C@H]1CN(C(=O)OC(C)(C)CF)CCN1c1ncnc2c1c(-c1ccccc1)cn2-c1cnn(C)c1 , please.
Response line: 6.30 to 7.00

Prompt line: Observed pEC50 on TRPML1 (Homo sapiens, UniProt Q9GZU1) for CC(C)(C)OC(=O)N1CCN(c2ncnc3c2c(C2CC2)cn3-c2ccc(Cl)cc2)CC1 , please.
Response line: > 7.00
